# Test system: HCV replicon 1AY93H
# procedure-details: Cell-based HCV Replicon Assay A, replicon 1AY93H
# assay-conditions: read-out: 1A Y93H IC50, replicon 1AY93H
Provide the recorded pIC50 for the entries that follow.
Numbers only, as −log10 of the molar value.

Please review the following examples before continuing.
COC(=O)NC(C(=O)N1[C@@H]2C[C@@H]2C[C@H]1c1ncc(-c2ccc3c(c2)cc2n3C(c3cnc(C4(C)CC4)s3)Oc3cc(-c4cnc([C@@H]5CCCN5C(=O)[C@@H](NC(=O)OC)C(C)C)[nH]4)cc(F)c3-2)[nH]1)C1C[C@@H](C)O[C@@H](C)C1 (single isomer, unassigned) [Compound 464] | 9.71
COC(=O)N[C@H](C(=O)N1CCC[C@H]1c1ncc(-c2cc(F)c3c(c2)OC(c2csc(C4CC4)n2)n2c-3cc3cc(-c4cnc([C@@H]5CCCN5C(=O)[C@@H](NC(=O)OC)C(C)C)[nH]4)ccc32)[nH]1)C(C)C (single isomer, unassigned) [Compound 433] | 10.22
CCCc1ncc(C2Oc3cc(-c4cnc([C@@H]5CCCN5C(=O)[C@@H](NC(=O)OC)C(C)C)[nH]4)cc(F)c3-c3cc4cc(-c5cnc([C@@H]6C[C@H]7C[C@H]7N6C(=O)C(NC(=O)OC)C6CCOC(C)(C)C6)[nH]5)ccc4n32)s1 (single isomer, unassigned) [Compound 104] | 11.39
COC(=O)N[C@H](C(=O)N1CCC[C@H]1c1ncc(-c2cc(F)c3c(c2)OC(c2cnns2)n2c-3cc3cc(-c4cnc([C@@H]5CCCN5C(=O)[C@@H](NC(=O)OC)C(C)C)[nH]4)ccc32)[nH]1)C(C)C (single isomer, unassigned) [Compound 4] | 8.86
CCc1ncc(C2Oc3cc(-c4cnc([C@@H]5CCCN5C(=O)[C@@H](NC(=O)OC)C(C)C)[nH]4)cc(F)c3-c3cc4cc(-c5cnc([C@@H]6CCCN6C(=O)[C@@H](NC(=O)OC)C(C)C)[nH]5)ccc4n32)s1 (single isomer, unassigned) [Compound 82] | 8.80

Give pIC50 for each of the items listed below.
1. COC(=O)N[C@H](C(=O)N1CCC[C@H]1c1ncc(-c2cc(F)c3c(c2)OC(c2cnc(C4CC4)s2)n2c-3cc3cc(-c4cnc([C@@H]5CCCN5C(=O)[C@@H](NC(=O)OC)C(C)C)[nH]4)ccc32)[nH]1)C(C)C (single isomer, unassigned) [Compound 10]
2. COC(=O)NC(C(=O)N1CCC[C@H]1c1ncc(-c2ccc3c(c2)cc2n3C(c3cnc(C4CC4)s3)Oc3cc(-c4cnc([C@@H]5CCCN5C(=O)[C@@H](NC(=O)OC)C(C)C)[nH]4)cc(F)c3-2)[nH]1)C1C[C@@H](C)O[C@H](C)C1 (single isomer, unassigned) [Compound 304]
3. COC(=O)N[C@H](C(=O)N1CCC[C@H]1c1ncc(-c2cc(F)c3c(c2)OC(c2cnc(C4CC4)s2)n2c-3c(F)c3cc(-c4cnc([C@@H]5CCCN5C(=O)[C@@H](NC(=O)OC)C5CCOCC5)[nH]4)ccc32)[nH]1)C(C)C (single isomer, unassigned) [Compound 41]
4. COC(=O)NC(C(=O)N1[C@@H]2C[C@@H]2C[C@H]1c1ncc(-c2ccc3c(c2)cc2n3C(c3cnc(C4CC4)s3)Oc3cc(-c4cnc([C@@H]5CCCN5C(=O)[C@@H](NC(=O)OC)C(C)C)[nH]4)cc(F)c3-2)[nH]1)C(C)(C)F (single isomer, unassigned) [Compound 28]
5. COC(=O)N[C@H](C(=O)N1CCC[C@H]1c1ncc(-c2cc(F)c3c(c2)OC(c2cnc(C4CCCCC4)s2)n2c-3cc3cc(-c4cnc([C@@H]5CCCN5C(=O)[C@@H](NC(=O)OC)C(C)C)[nH]4)ccc32)[nH]1)C(C)C (some centres unmarked) [Compound 527]
6. COC(=O)N[C@H](C(=O)N1CCC[C@H]1c1ncc(-c2cc(F)c3c(c2)OC(c2nc4c(s2)CCC4)n2c-3cc3cc(-c4cnc([C@@H]5CCCN5C(=O)[C@@H](NC(=O)OC)C(C)C)[nH]4)ccc32)[nH]1)C(C)C (single isomer, unassigned) [Compound 505]
7. COC(=O)N[C@H](C(=O)N1CCC[C@H]1c1ncc(-c2cc(F)c3c(c2)OC(c2cnc(C4CC4)s2)n2c-3cc3cc(-c4cnc([C@@H]5CCCN5C(=O)[C@@H](NC(=O)OC)C(C)C)[nH]4)ccc32)[nH]1)C(C)C (single isomer, unassigned) [Compound 9]

1: 11.46; 2: 9.91; 3: 9.90; 4: 9.94; 5: 11.30; 6: 9.82; 7: 9.07

Give pIC50 for each of the items listed below.
1. COC(=O)NC(C(=O)N1CCC[C@H]1c1ncc(-c2ccc3c(c2)cc2n3C(c3cnc(C4(C)CCCC4)s3)Oc3cc(-c4cnc([C@@H]5CCCN5C(=O)[C@@H](NC(=O)OC)C(C)C)[nH]4)cc(F)c3-2)[nH]1)C1CCOC(C)(C)C1 (single isomer, unassigned) [Compound 471]
2. CCCc1ncc(C2Oc3cc(-c4cnc([C@@H]5CCCN5C(=O)[C@@H](NC(=O)OC)C(C)C)[nH]4)cc(F)c3-c3cc4cc(-c5cnc([C@@H]6C[C@H]7C[C@H]7N6C(=O)C(NC(=O)OC)C6C[C@@H](C)O[C@@H](C)C6)[nH]5)ccc4n32)s1 (single isomer, unassigned) [Compound 109]

11.52
10.52

----------
# System: HCV replicon 1AY93H
# procedure-details: Cell-based HCV Replicon Assay A, replicon 1AY93H
# assay-conditions: read-out: 1A Y93H IC50, replicon 1AY93H
pIC50: −log10 of the molar value.
Assign t whenever pIC50 does not fall below 10; assign f whenever it does.

COC(=O)NC(C(=O)N1CCC[C@H]1c1ncc(-c2ccc3c(c2)cc2n3C(c3cnc(C4CC4)s3)Oc3cc(-c4cnc([C@@H]5CCCN5C(=O)[C@@H](NC(=O)OC)C(C)C)[nH]4)cc(F)c3-2)[nH]1)C1CCOC(C)(C)C1 (single isomer, unassigned) [Compound 309] | t

Determine whether measured pIC50 meets or exceeds 10 for CCCc1ncc(C2Oc3cc(-c4cnc([C@@H]5CCCN5C(=O)[C@@H](NC(=O)OC)C(C)C)[nH]4)cc(F)c3-c3cc4cc(-c5cnc([C@@H]6C[C@H]7C[C@H]7N6C(=O)C(NC(=O)OC)C6CCOC(C)(C)C6)[nH]5)ccc4n32)s1 (single isomer, unassigned) [Compound 107]
t

Determine whether measured pIC50 meets or exceeds 10 for COC(=O)NC(C(=O)N1[C@@H]2C[C@@H]2C[C@H]1c1ncc(-c2ccc3c(c2)cc2n3C(c3cnc(C4(C)CC4)s3)Oc3cc(-c4cnc([C@@H]5CCCN5C(=O)[C@@H](NC(=O)OC)C(C)C)[nH]4)cc(F)c3-2)[nH]1)C1CCOC(C)(C)C1 (single isomer, unassigned) [Compound 467]
f

Determine whether measured pIC50 meets or exceeds 10 for COC(=O)N[C@H](C(=O)N1CCC[C@H]1c1ncc(-c2cc(F)c3c(c2)OC(c2cnc(C4(C)CC4)s2)n2c-3cc3cc(-c4cnc([C@@H]5CCCN5C(=O)[C@@H](NC(=O)OC)C(C)C)[nH]4)ccc32)[nH]1)C(C)C (single isomer, unassigned) [Compound 512]
f

Determine whether measured pIC50 meets or exceeds 10 for COC(=O)N[C@H](C(=O)N1CCC[C@H]1c1ncc(-c2cc(F)c3c(c2)OC(c2cnc(C(F)F)s2)n2c-3cc3cc(-c4cnc([C@@H]5CCCN5C(=O)[C@@H](NC(=O)OC)C(C)C)[nH]4)ccc32)[nH]1)C(C)C (single isomer, unassigned) [Compound 20]
t

Determine whether measured pIC50 meets or exceeds 10 for COC(=O)NC(C(=O)N1[C@@H]2C[C@@H]2C[C@H]1c1ncc(-c2ccc3c(c2)cc2n3C(c3cnc(C4CC4)s3)Oc3cc(-c4cnc([C@@H]5CCCN5C(=O)[C@@H](NC(=O)OC)C(C)C)[nH]4)cc(F)c3-2)[nH]1)C1C[C@@H](C)O[C@@H](C)C1 (single isomer, unassigned) [Compound 311]
t

Determine whether measured pIC50 meets or exceeds 10 for COCc1ncc(C2Oc3cc(-c4cnc([C@@H]5CCCN5C(=O)[C@@H](NC(=O)OC)C(C)C)[nH]4)cc(F)c3-c3cc4cc(-c5cnc([C@@H]6CCCN6C(=O)[C@@H](NC(=O)OC)C(C)C)[nH]5)ccc4n32)s1 (single isomer, unassigned) [Compound 18]
t

Determine whether measured pIC50 meets or exceeds 10 for CCCOCc1ncc(C2Oc3cc(-c4cnc([C@@H]5CCCN5C(=O)[C@@H](NC(=O)OC)C(C)C)[nH]4)cc(F)c3-c3cc4cc(-c5cnc([C@@H]6CCCN6C(=O)[C@@H](NC(=O)OC)C(C)C)[nH]5)ccc4n32)s1 (single isomer, unassigned) [Compound 500]
f

Determine whether measured pIC50 meets or exceeds 10 for COC(=O)N[C@H](C(=O)N1CCC[C@H]1c1ncc(-c2cc(F)c3c(c2)OC(c2nc(C(F)(F)F)cs2)n2c-3cc3cc(-c4cnc([C@@H]5CCCN5C(=O)[C@@H](NC(=O)OC)C(C)C)[nH]4)ccc32)[nH]1)C(C)C (single isomer, unassigned) [Compound 420]
f

Determine whether measured pIC50 meets or exceeds 10 for COC(=O)N[C@H](C(=O)N1CCC[C@H]1c1ncc(-c2cc(F)c3c(c2)OC(c2cnc(-c4ccc(Cl)cc4)s2)n2c-3cc3cc(-c4cnc([C@@H]5CCCN5C(=O)[C@@H](NC(=O)OC)C(C)C)[nH]4)ccc32)[nH]1)C(C)C (single isomer, unassigned) [Compound 53]
t

Determine whether measured pIC50 meets or exceeds 10 for COC(=O)NC(C(=O)N1[C@@H]2C[C@@H]2C[C@H]1c1ncc(-c2ccc3c(c2)c(F)c2n3C(c3cnc(C4CC4)s3)Oc3cc(-c4cnc([C@@H]5CCCN5C(=O)[C@@H](NC(=O)OC)C(C)C)[nH]4)cc(F)c3-2)[nH]1)C1CCOC(C)(C)C1 (single isomer, unassigned) [Compound 112]
t
